assay: Half life in dog at 1 mg/kg, iv; assay type: ADME, organism-based, Canis lupus familiaris; settings: in vivo
ENDPOINT: half-life (h)
Express your answer in h, writing the number without its unit.

half-life in this record for COC(=O)N[C@@H]1CC(C)(C)c2ccc(Nc3nc(NCC(F)F)c4occc4n3)cc2NC1=O : 9.9

* * *

molecular target: Cyclin-dependent kinase 2 (Homo sapiens)
pIC50: −log10 of the molar value.
ENDPOINT: pIC50

pIC50 in this record for CC1(C)OCC(=O)Nc2cc(Nc3nc(NCC(F)(F)F)c4occc4n3)ccc21 : < 5.00

* * *

experiment: Clearance in rat at 1 mg/kg, iv; type: ADME, organism-based; settings: in vivo
ENDPOINT: clearance (mL/min/kg)
Express your answer in mL/min/kg, writing the number without its unit.

clearance in this record for COC(=O)N[C@@H]1CC(C)(C)c2ccc(Nc3nc(NCC(F)F)c4occc4n3)cc2NC1=O : 28.3

Ref: ChEMBL document CHEMBL4007384
